assay: The compound was tested for toxicity in peripheral blood mononuclear cells.; type: functional, Homo sapiens
Provide the recorded IC50 for the entries that follow.
Numbers only, in µM.

Smiles Repr: O=c1[nH]c(=O)n(COCCO)cc1Br
IC50 [µM]: 100

Kindly consider the entry below.
[Q] I am curious: what IC50 value has been reported for O=c1[nH]c(=O)n(COCCO)cc1F ?
[A] 67

====

assay: The compound was tested for toxicity in Vero cells; format: cell-based; conditions: Chlorocebus sabaeus (African green monkey)
Record form. Attribute: IC50. Fill in for each entry.

Example entries and their recorded answers appear below.
Compound: Cc1cn([C@H]2C[C@H](N=[N+]=[N-])[C@@H](CO)O2)c(=O)[nH]c1=O [ZIDOVUDINE]
IC50: 26 µM
--
Compound: Cc1c([Se]c2ccccc2)n(COCCO)c(=S)[nH]c1=O
IC50: 60.7 µM
--
Compound: O=c1[nH]c(=O)n(COCCO)c([Se]c2ccccc2)c1Cl
IC50: 7.5 µM
--
Compound: O=c1[nH]c(=O)n(COCCO)c([Se]c2ccccc2)c1Br
IC50: 8.2 µM
--
Compound: O=c1[nH]c(=O)n(COCCO)c([Se]c2ccccc2)c1F
IC50: 25.7 µM
--
Compound: Cc1c([Se]c2ccccc2)n(COCCO)c(=O)[nH]c1=O
IC50: > 100 µM
--
Compound: O=c1ccn(COCCO)c(=O)[nH]1
IC50: > 100 µM

Then this compound:
[Q] What does the data say about its IC50? Entry: O=c1cc([Se]c2ccccc2)n(COCCO)c(=O)[nH]1
[A] > 100 µM

====

molecular target: UniProt Q72547; experiment: Inhibition of HIV-1 reverse transcriptase.
Quantity Kind: pIC50
Answers are plain numbers, as −log10 of the molar value.

[Q] // returns reported pIC50 for input Cc1c(Sc2ccccc2)n(COCCO)c(=O)[nH]c1=O [HEPT]
[A] 4.76

====

assay: Antiviral activity against human peripheral blood mononuclear cells, infected with HIV-1(strain LAV).; assay type: functional
Would you mind telling me the reported EC50 of each entry?

Compound: Cc1cn(COCCO)c(=O)[nH]c1=O
EC50: > 100 µM
--
Compound: O=c1[nH]c(=O)n(COCCO)cc1F
EC50: > 100 µM
--
Compound: Cc1cn(COCCO)c(=S)[nH]c1=O
EC50: > 100 µM
--
Compound: Cc1c(Sc2ccccc2)n(COCCO)c(=O)[nH]c1=O [HEPT]
EC50: 5.3 µM

Batch: EC50 for all items listed.
1. O=c1[nH]c(=O)n(COCCO)cc1Br
2. O=c1[nH]c(=O)n(COCCO)cc1Cl

[A]
> 100 µM
> 100 µM

====

experiment: The compound was tested for toxicity in peripheral blood mononuclear cells.; assay type: functional, Homo sapiens
Kindly state IC50 for each of the entries shown.

Worked cases, IC50 given:
Molecule: Cc1cn(COCCO)c(=O)[nH]c1=O
IC50: > 100 µM
//
Molecule: Cc1c(Sc2ccccc2)n(COCCO)c(=O)[nH]c1=O [HEPT]
IC50: > 100 µM

Kindly review the next molecule as well.
[Q] Tell me the measured IC50 of Cc1cn(COCCO)c(=S)[nH]c1=O , please.
[A] > 100 µM
